# MEASUREMENT_DESCRIPTION: compound binding in COS7 lysate, probe aLAP1, primary screen, cell lysate, small-molecule microarray (AID 1124);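 also: lysate comes from COS7 cells expressing LAP1 and is applied at 0.3 µg/mL; score merges spot fluorescence near 667 nm with signal-to-noise over triplicate slides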
# CONDITION_CONTEXT: probe aLAP1, fluorescence, higher = more signal
Returns Y if the recorded composite z-score is greater than or equal to 0.9, and N otherwise.

Known results for molecules:
molecule="Cn1cccc1C(O)C1C=CC2C(=O)NC(=O)C2N1Nc1ccc(Cl)cc1Cl (stereo not given)" answer_label=Y
molecule=C[N+](C)(C)CCCCCCNC(=O)[C@H]1C[C@H]2C(=O)N[C@@H](Cc3ccccc3)C(=O)N2[C@H]1c1ccc(O)cc1 answer_label=N

Input: Textbook exercise: given the entry Cc1cc(C)cc(N2C(=O)CSC2c2cccc([N+](=O)[O-])c2)c1 (stereo not given) , state whether its composite z-score is greater than or equal to 0.9.
Output: N

Input: Textbook exercise: given the entry `C=C(/C(=C/C[C@@H](OC(C)=O)c1cccc(OCCO)c1)c1cc(C(=O)OC)ccc1OC)C(C)C` , state whether its composite z-score is greater than or equal to 0.9.
Output: N

====

# MEASUREMENT_DESCRIPTION: cell viability in Huh7 cells, primary screen, cytotoxicity control for HCV replication inhibitor project, CellTiter-Glo luminescence, basal, 48 h (AID 1143);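 also: Huh7 hepatoma cells carrying a hepatitis C replication reporter with no stimulus; test concentration not given here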
# CONDITION_CONTEXT: Huh7 HCV replicon, higher = more signal, called active from +8 up or from −8 down
The source made the active and inactive calls.
Overview of recorded z-score for various compounds

Consider the following illustrative entries.
item_smiles=COCCOC(=O)N1C(=O)[C@@]2(c3cc(C#CC4(O)CCCCCC4)ccc31)[C@H](c1ccc(O)cc1)N1[C@H](c3ccccc3)[C@H](c3ccccc3)OC(=O)[C@H]1[C@@H]2C(=O)NC[C@H](O)c1ccccc1 result="-1.48 (inactive)"
item_smiles=CC(C)[Si](C#C[Si](C(C)C)(C(C)C)C(C)C)(O[C@H](C)c1cn([C@H](CO)Cc2ccccc2)nn1)C(C)C result="-0.43 (inactive)"

Input: Respond only with z-score recorded for `COCCOC(=O)N1C(=O)[C@@]2(c3cc(C#Cc4ccc(OC)cc4)ccc31)[C@H](C(=O)Nc1nc3ccccc3s1)[C@H]1C(=O)O[C@H](c3ccccc3)[C@H](c3ccccc3)N1[C@@H]2c1ccc(O)cc1`
Output: -3.43 (inactive)

====

Overview of recorded composite z-score for various compounds
# Test system: Noggin (protein binding on small-molecule microarray)
# MEASUREMENT_DESCRIPTION: Noggin binders on small-molecule microarray, primary screen, biochemical, 635/667 nm fluorescence (AID 1095);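 also: score merges 667 nm feature fluorescence with signal to noise over triplicate slides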
# CONDITION_CONTEXT: 635 nm fluorescence, higher = more signal
Could you keep your reply to the number by itself?

Consider the following illustrative entries.
compound=COCCOC(=O)N1C(=O)[C@@]2(c3cc(C#CCCO)ccc31)[C@H](c1ccccc1OCCO)N1[C@H](c3ccccc3)[C@H](c3ccccc3)OC(=O)[C@H]1[C@@H]2C(=O)Nc1nc2ccccc2s1 experimental_readout="composite z-score" result_number=1.1
compound="O=C1NC(=O)C2C1C=CC(C(O)c1c(F)cccc1Cl)N2Nc1ccc(Cl)cc1Cl (stereo not drawn)" experimental_readout="composite z-score" result_number=-0.836

Let's switch to this compound now.
Input: Respond only with composite z-score recorded for `COc1ccc([Si](C)(C)[C@@H]2[C@@H](CC(=O)N(CCO)Cc3ccccc3)O[C@]3(C(=O)N(Cc4cccc(N5CCOC5=O)c4)c4ccccc43)[C@H]2C)cc1`
Output: 0.726

====

# MEASUREMENT_DESCRIPTION: S. cerevisiae growth modulation with rapamycin, primary screen, strain BY4716, OD600, 96 h (AID 1091); also: test concentration not given here
# CONDITION_CONTEXT: higher = more signal, called active from +8 up or from −8 down
EXPERIMENTAL_READOUT: z-score
Could you keep your reply to the number by itself?

compound=COCCCNC(=O)[C@@]1(Cc2ccccc2N=[N+]=[N-])COC(c2ccc(OCCCO)cc2)=N1 result_number=0.0734
compound=[N-]=[N+]=NCc1ccccc1C[C@]1(C(N)=O)N=C(c2ccc(OCCCO)cc2)O[C@H]1c1ccccc1 result_number=2.34
compound="CCC(CC)C(O)C1C=CC2C(=O)N(c3ccccc3)C(=O)C2N1Nc1ccc(C(C)C)cc1 (centres undefined)" result_number=1.23
compound=C=C[C@@H](OC)[C@H](OC(=O)Nc1ccc(SC)cc1)c1ccc(O)c(F)c1 result_number=1.65
compound=O=C(CS)NCCCCCCNC(=O)[C@H]1C[C@H]2C(=O)N[C@@H](Cc3ccccc3)C(=O)N2[C@H]1c1ccc(O)cc1 result_number=1.12

Input: Respond only with z-score recorded for [N-]=[N+]=Nc1ccccc1[C@@H]1OC(c2ccc(OCCCO)cc2)=N[C@]1(Cc1ccccc1)C(=O)NCC(O)CO (some centres undefined)
Output: 1.32

Input: Respond only with z-score recorded for `COc1ccc(NC(=O)O[C@H]2[C@H](OC(=O)Nc3ccccc3)[C@@H](OC(=O)Nc3ccccc3)[C@@H](OC)O[C@@H]2CO)cc1`
Output: -0.758

Input: Respond only with z-score recorded for [N-]=[N+]=NCc1ccccc1[C@H]1OC(c2ccc(OCCCO)cc2)=N[C@@]1(CCS(=O)(=O)c1ccccc1)C(=O)NCC(O)CO (some centres undefined)
Output: 3.65

Input: Respond only with z-score recorded for `COC(=O)C(CC#Cc1ccc2c(c1)[C@]1(C(=O)N2)[C@H](C(=O)N2CCN(c3ncccn3)CC2)[C@H]2C(=O)O[C@H](c3ccccc3)[C@H](c3ccccc3)N2[C@@H]1c1ccc(OCCO)cc1)C(=O)OC`
Output: 5.67

Input: Respond only with z-score recorded for `CCCNC(=O)[C@@H]1c2ccccc2C(=O)N(C(C)C)[C@H]1c1ccc(CO)cc1`
Output: -0.148

Input: Respond only with z-score recorded for `[N-]=[N+]=Nc1ccccc1C[C@]1(C(=O)N2CCOCC2)N=C(c2ccc(OCCCO)cc2)O[C@H]1c1ccccc1`
Output: 1.42

Input: Respond only with z-score recorded for `C=C(/C(=C/C[C@H](OC(C)=O)c1ccccc1OCCO)c1cc(C(=O)OC)ccc1OC)C(C)C`
Output: -0.376

Input: Respond only with z-score recorded for `CO[C@H]1O[C@H](CO)[C@@H](OC(=O)Nc2ccccc2-c2ccccc2)[C@H](OC(=O)Nc2ccc3c(c2)OCO3)[C@H]1OC(=O)Nc1ccc2c(c1)OCO2`
Output: 7.32

Input: Respond only with z-score recorded for `COc1ccc([Si](C)(C)[C@@H]2[C@@H](CC(=O)N(CCO)Cc3ccccc3)O[C@]3(C(=O)N(Cc4cccc(N5CCOC5=O)c4)c4ccccc43)[C@H]2C)cc1`
Output: 2.11

Input: Respond only with z-score recorded for `CN(C)C(=O)[C@@]1(Cc2ccccc2CN=[N+]=[N-])N=C(c2ccc(OCCCO)cc2)O[C@H]1c1ccccc1CN=[N+]=[N-]`
Output: 15.6

Input: Respond only with z-score recorded for `O=C1O[C@H](c2ccccc2)[C@H](c2ccccc2)N2[C@H]1[C@@H](C(=O)N1CCN(c3ncccn3)CC1)[C@]1(C(=O)Nc3ccc(C#CC4(O)CCCCCC4)cc31)[C@H]2c1ccc(OCCO)cc1`
Output: 5.4

Input: Respond only with z-score recorded for `C=C(CCCC)/C(=C/C[C@@H](OC(=O)c1ccncc1)c1ccccc1OCCO)c1cnc2ccccc2c1`
Output: 1.65

Input: Respond only with z-score recorded for `COCCOC(=O)N1C(=O)[C@@]2(c3cc(C#CC4=CCCCC4)ccc31)[C@H](c1ccc(OCCO)cc1)N1[C@H](c3ccccc3)[C@H](c3ccccc3)OC(=O)[C@H]1[C@@H]2C(=O)N1CCN(c2ncccn2)CC1`
Output: 3.64

====

# STUDY_TARGET: Concanavalin-A (Canavalia ensiformis)
# MEASUREMENT_DESCRIPTION: ConA small-molecule binders, primary screen, artefact control for SMM control protein annotation, biochemical, small-molecule microarray, Alexa647 label, 635 nm (AID 1127);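 also: z combines 667 nm emission intensity with signal-to-noise across three replicate slides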
# CONDITION_CONTEXT: ConA-A647 binding fluorescence, higher = more signal
Returns Y if the recorded composite z-score is greater than or equal to 1, and N otherwise.

Known results for compounds:
item_smiles=COC(=O)[C@@]1(Cc2ccc(OC)cc2)[C@H]2c3cc(C(=O)N(C)C)n(Cc4ccc(Cl)c(C(F)(F)F)c4)c3C[C@H]2CN1C(=O)c1ccccc1 answer_label=N
item_smiles=COC(=O)[C@@]1(Cc2ccc(F)cc2)[C@H]2c3cc(C(=O)N(C)C)n(CCc4ccc(O)c(OC)c4)c3C[C@H]2CN1C(=O)c1ccccc1 answer_label=N
item_smiles=CC(C)[Si](C#CCCCC#N)(O[C@H](c1ccccc1)c1cn([C@H](CO)Cc2ccccc2)nn1)C(C)C answer_label=Y
item_smiles=O=C1N(Cc2ccccc2)Cc2ccccc2[C@@H]2OC(c3ccc(OCCCO)cc3)=N[C@]12CCS(=O)(=O)c1ccccc1 answer_label=N
item_smiles=O=C1O[C@@H](c2ccccc2)[C@@H](c2ccccc2)N2[C@@H](c3ccc(OCCO)cc3)[C@]3(C(=O)Nc4ccccc43)[C@@H](C(=O)O)[C@H]12 answer_label=N

Please examine the following record next.
Input: Textbook exercise: given the entry `COc1ccc([Si](C)(C)[C@@H]2[C@@H](CC(=O)N(CCO)Cc3ccccc3)O[C@]3(C(=O)N(Cc4cccc(N5CCOC5=O)c4)c4ccccc43)[C@H]2C)cc1` , state whether its composite z-score is greater than or equal to 1.
Output: Y
